EXPERIMENTAL_READOUT: melting point

Use these answered entries as a reference point.
> print(dat)
                           smiles.structure  experimental.readout  observed.result
1           O=C(/N=c1\ccccn1CC1CC1)C(F)(F)F         melting point      90 to 91 °C
2  Cc1c(C(C)(C)C)s/c(=N\C(=O)c2cnnc3ccccc23)n1CC1CC1         melting point    140 to 141 °C
3  COc1cc(Cl)ccc1C(=O)/N=c1\sc(C(C)(C)C)c(C)n1CC1CC1         melting point    163 to 165 °C
4  Cc1c(C(C)(C)C)s/c(=N\C(=O)c2cc(F)c(F)cc2Cl)n1CC1CC1         melting point    112 to 114 °C
5     Cc1ncccc1C(=O)/N=c1\sc2ccccc2n1CC1CC1         melting point    181 to 183 °C

What does the record list as melting point for O=C(/N=c1\ccccn1CC1CC1)c1cccc(C(F)(F)F)c1F ?
58.5 to 59 °C

Request the reported melting point associated with O=C(/N=c1\ccccn1CC1CC1)c1cc(F)ccc1C(F)(F)F
88.5 to 89 °C

For COc1ccc(C(F)(F)F)cc1C(=O)/N=c1\oc(C(C)C)c(C)n1CC1CC1 , what is its reported melting point?
118 to 120 °C

----------
EXPERIMENTAL_READOUT: melting point

Previously resolved entries follow.
> print(dat)
                                   compound  observed.result
1  Cc1cccc(C(=O)/N=c2\cc(C(C)(C)C)n(C)n2CC2CC2)c1Br    153 to 155 °C
2  CC(C)(C)c1nn(CC2CC2)/c(=N/C(=O)c2cc(C(F)(F)F)ccc2F)o1      61 to 63 °C
3  Cc1c(C(C)(C)C)s/c(=N\C(=O)c2cc(Cl)ncc2Cl)n1CC1CC1 [compound 307]    110 to 112 °C
4  COc1ccc(C(F)(F)F)cc1C(=O)/N=c1\cc(C(C)(C)C)n(C)n1CC1CC1     99 to 101 °C
5  Cc1cccc(C(=O)/N=c2\sc(C(C)(C)C)c(C)n2CC2CC2)c1I [compound 249]    149 to 151 °C

Which melting point value is on record for Cc1ccccc1C(=O)/N=c1\sc2cc(F)ccc2n1CC1CC1 ?
143 to 145 °C

Would you kindly share the measured melting point for Cc1c(C(C)(C)C)s/c(=N\C(=O)CCC(F)(F)F)n1CC1CC1 [compound 335] ?
102 to 103 °C

Find the recorded melting point belonging to Cc1c(C(C)(C)C)s/c(=N\C(=O)c2ccc(Br)cc2F)n1CC1CC1 [compound 227] and report it.
121 to 131 °C

# query: melting point of entry Cc1c(C(C)(C)C)s/c(=N\C(=O)c2cccc(N3CCCC3)c2)n1CC1CC1
118 to 120 °C

----------
TARGET_SYSTEM: human CB2 receptor (Homo sapiens, UniProt P34972)
Construct: expressed in transfected cells
Sequence (P34972 whole entry): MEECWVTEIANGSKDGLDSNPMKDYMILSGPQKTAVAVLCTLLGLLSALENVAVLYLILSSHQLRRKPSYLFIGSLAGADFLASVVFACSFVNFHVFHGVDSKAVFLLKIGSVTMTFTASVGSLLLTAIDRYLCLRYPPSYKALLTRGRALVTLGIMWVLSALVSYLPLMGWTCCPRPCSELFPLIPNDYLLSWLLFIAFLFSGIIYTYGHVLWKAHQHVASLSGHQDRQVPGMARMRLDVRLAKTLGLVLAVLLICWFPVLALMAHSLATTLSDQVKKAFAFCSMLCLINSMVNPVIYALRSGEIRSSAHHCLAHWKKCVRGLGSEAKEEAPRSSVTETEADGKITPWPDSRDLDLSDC
PROCEDURE_TEXT: Human CB2 receptor binding inhibition test ([3H]CP-55,940, CHO membrane fractions)
CONDITION: [3H]CP-55,940, membrane fractions of CHO cells stably expressing human CB2 receptor, 25° C., 2 hours; read-out: CB2 IC50 (Inhibition of binding to human CB2 receptor)
This listing pairs compounds with measured IC50.
Return type: number; implicit unit nM.

Example compounds with recorded IC50:
> print(dat)
                                   compound  observed.result
1  CCOc1ccc(OCC)c(C(=O)/N=c2\sc(C(C)(C)C)c(C)n2CC2CC2)c1              4.4
2  Cc1ccc(C(=O)/N=c2\sc(C(C)(C)C)c(C)n2CC2CC2)c(F)c1F             13.5
3  CCOc1ccc(C(F)(F)F)cc1C(=O)/N=c1\sc(C(C)(C)C)c(C)n1CC1CC1              1.1
4  Cc1c(C(C)(C)C)s/c(=N\C(=O)c2cc(F)c(F)cc2Cl)n1CC1CC1              1.2
5  Cc1c(C(C)(C)C)s/c(=N\C(=O)c2ccccc2OC(F)(F)F)n1CC1CC1                2

Quick one: IC50 of Cc1c(C(C)(C)C)s/c(=N\C(=O)c2ccccc2I)n1C ?
8.9

Returns the measured IC50 for the input compound. Input: Cc1ccc(F)c(C(=O)/N=c2\sc(C(C)(C)C)c(C)n2C)c1F
4.3

----------
Listing: melting point of selected compounds

Consider the reported melting point for these compounds:
> print(dat)
                            smiles.structure  experimental.readout  observed.result
 1  CCOCCn1/c(=N/C(=O)c2cccc(C(F)(F)F)c2C)cc(C(C)(C)C)n1C         melting point    132 to 133 °C
 2  Cc1c(C(C)(C)C)s/c(=N/C(=O)c2cnccc2C(F)(F)F)n1CC1CC1         melting point      74 to 76 °C
 3  Cc1c(C(C)(C)C)s/c(=N\C(=O)c2ccc(F)cc2Br)n1CC1CC1         melting point    126 to 128 °C
 4  CCOc1ncccc1C(=O)/N=c1\sc(C(C)(C)C)c(C)n1CC1CC1         melting point    102 to 104 °C
 5  COCCCn1c(C)c(C)s/c1=N\C(=O)c1cccc(C(F)(F)F)c1F         melting point    104 to 106 °C
 6  Cc1s/c(=N\C(=O)c2c(F)cccc2C(F)(F)F)n(CC2CC2)c1C         melting point    111 to 113 °C
 7  Cc1c(C(C)(C)C)s/c(=N\C(=O)C2CCC2)n1CC1CC1         melting point    189 to 191 °C
 8  CC(C)(C)c1nn(CC2CC2)/c(=N/C(=O)c2ccc(F)cc2C(F)(F)F)s1         melting point      76 to 78 °C
 9  Cc1c(C(=O)/N=c2\cc(C(C)(C)C)n(C)n2CC2CCC2)cccc1C(F)(F)F         melting point    133 to 134 °C
10  CCn1c(C)c(C(C)(C)C)s/c1=N\C(=O)c1cc(F)ccc1Br         melting point    115 to 116 °C

Here is another compound to look at.
What measured melting point goes with Cc1c(C(C)(C)C)s/c(=N\C(=O)C2CCCCC2)n1CC1CC1 ?
141 to 142 °C

----------
Items are presented alongside their recorded melting point.

> print(dat)
                                   compound  experimental.readout    observed.result
1  CCc1s/c(=N\C(=O)c2cccc(C(F)(F)F)c2F)n(CC)c1C         melting point      115 to 117 °C
2  CCOCCn1cccc/c1=N\C(=O)c1cccc(C(F)(F)F)c1F         melting point  104.5 to 105.5 °C
3  Cn1c(C(C)(C)C)c/c(=N\C(=O)c2cccc(Br)c2F)n1CC1CC1         melting point      127 to 128 °C
4  Cc1s/c(=N\C(=O)c2ccccc2C(F)(F)F)n(CC2CC2)c1C         melting point      125 to 127 °C
5  Cc1cccc(C)c1C(=O)/N=c1\sc(C(C)(C)C)c(C)n1CC1CC1         melting point       98 to 100 °C
6  Cc1c(C(=O)NCCN2CCOCC2)s/c(=N\C(=O)c2cccc(C(F)(F)F)c2)n1CC1CC1         melting point      156 to 158 °C

// melting point lookup, key: Cc1ccc(F)cc1C(=O)/N=c1\sc(C(C)(C)C)c(C)n1C
145 to 146 °C

Requested read-out: melting point. Entry: Cc1ccc(C)c(C(=O)/N=c2\sc(C(C)(C)C)c(C)n2CC2CC2)c1
106 to 107 °C

Could you share which melting point value was measured for Cc1c(C(C)(C)C)s/c(=N\C(=O)c2c(F)ccc(C(F)(F)F)c2F)n1CC1CC1 ?
109 to 111 °C

Param item = Cc1c(C(C)(C)C)s/c(=N\C(=O)c2cccc(C(F)(F)F)c2Cl)n1CC1CC1 ; retrieve measured melting point.
93 to 94 °C

May I ask what melting point has been recorded for COCCn1c(C)c(C)s/c1=N\C(=O)c1cccc(C(F)(F)F)c1F ?
182 to 183 °C

Given the compound Cn1c(C(C)(C)C)c/c(=N\C(=O)C(F)(F)F)n1CC1CC1 , what is its reported melting point?
122 to 124 °C

Can you share its melting point? I mean this compound: Cc1ccc(C(=O)/N=c2\sc(C(C)(C)C)c(C)n2CC2CC2)c(C)c1
100 to 101 °C

# lookup: melting point of Cc1s/c(=N\C(=O)c2cc(F)ccc2Cl)n(CC2CC2)c1C
139 to 140 °C

Values from patent US20080312435A1
